- assayed-target: BACE1 enzyme (soluble, truncated BACE enzyme, BACE1deltaTM96His) (Homo sapiens)
- Construct: soluble, truncated BACE enzyme (BACE1deltaTM96His); His; made in house
- assay-summary: BACE1 Fluorescent Polarization (FP) Assay
- Type: biochemical
- assay-setup: 11-point curve; geometric mean of 2-4 IC50 determinations unless footnoted (^2: 5-6 determinations; ^4: single determination); read-out: BACE activity, 11-point curve, IC50
pIC50: −log10 of the molar value. Where a name gives a salt, the structure may show the parent alone.
measured-endpoint: pIC50

a = Cc1scnc1-c1cc(CN2CC[C@]3(CCS(=O)(=O)N3c3ccccn3)C[C@@H]2C)ccc1O
b = Cc1cccnc1-c1cc(CN2CC[C@]3(C=CS(=O)(=O)N3c3cccc(F)c3)C[C@@H]2C)ccc1O
c = Cc1ccccc1-c1cc(CN2CC[C@]3(CCS(=O)(=O)N3c3cccc(F)c3)C[C@@H]2C)ccc1O [Example 62, hydrochloride salt]
d = Cc1csnc1-c1cc(CN2CC[C@]3(CCS(=O)(=O)N3c3ccccn3)C[C@@H]2C)ccc1O
Prompt: Rank the 4 compounds shown above by pIC50, smallest number first. Write the labels, ordered according to the request.
Completion: a, d, b, c
(a: 5.48, d: 6.12, b: 6.94, c: 7.48)

----------
- assayed-target: BACE1 enzyme (soluble, truncated BACE enzyme, BACE1deltaTM96His) (Homo sapiens, UniProt P56817)
- Construct: soluble, truncated BACE enzyme (BACE1deltaTM96His); His; made in house
- Sequence (P56817 46-457): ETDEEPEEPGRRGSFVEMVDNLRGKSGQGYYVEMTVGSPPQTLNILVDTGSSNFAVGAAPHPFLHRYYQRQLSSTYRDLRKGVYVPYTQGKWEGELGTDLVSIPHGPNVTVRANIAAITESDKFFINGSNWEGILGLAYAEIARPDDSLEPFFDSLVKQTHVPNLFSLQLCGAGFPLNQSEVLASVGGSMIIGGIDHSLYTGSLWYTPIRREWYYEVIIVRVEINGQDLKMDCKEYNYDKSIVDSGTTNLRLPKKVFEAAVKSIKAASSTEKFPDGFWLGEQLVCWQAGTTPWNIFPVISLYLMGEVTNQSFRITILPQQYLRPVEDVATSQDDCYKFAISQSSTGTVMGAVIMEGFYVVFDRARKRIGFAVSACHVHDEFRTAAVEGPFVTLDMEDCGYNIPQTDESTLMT
- assay-summary: BACE1 Fluorescent Polarization (FP) Assay
- Format: biochemical
- assay-setup: 11-point curve; geometric mean of 2-4 IC50 determinations unless footnoted (^2: 5-6 determinations; ^4: single determination); read-out: BACE activity, 11-point curve, IC50
pIC50: −log10 of the molar value. Where a name gives a salt, the structure may show the parent alone.
measured-endpoint: pIC50

Worked set:
In [3]: df
Out[3]:
                                   molecule  recorded_value
0  Cc1ccsc1-c1ocnc1CN1CC[C@]2(CCS(=O)(=O)N2c2cccc(F)c2)C[C@@H]1C [Example 58, hydrochloride salt]            5.19
1  CC(C)Cc1ncoc1CN1CC[C@]2(CC(C)S(=O)(=O)N2c2cccc(F)c2)C[C@@H]1C (mixture of isomers) [Example 2, formate salt]            5.35
2  Cc1ccccc1-c1cccc(CN2CC[C@]3(C=CS(=O)(=O)N3c3cccc(F)c3)C[C@@H]2C)c1 [Example 54]            6.86
3  CCOc1cc(CN2CC[C@]3(C=CS(=O)(=O)N3c3cccc(F)c3)C[C@@H]2C)ccc1O [Example 27]            6.57

P = C[C@H]1C[C@]2(CCN1Cc1ccc(O)c(C3CCC3)c1)C(=O)CS(=O)(=O)N2c1cccc(F)c1 [Example 84]
Q = C[C@H]1C[C@@]2(C=CS(=O)(=O)N2c2cccc(F)c2)CCN1Cc1ccc(O)c(C2CCCO2)c1 (single isomer, unassigned) [Example 31]
R = Cc1cccnc1-c1cc(CN2CC[C@@]3(C[C@@H]2C)C(=O)CS(=O)(=O)N3c2cccc(F)c2)ccc1O [Example 85]
S = C[C@H]1C[C@]2(CCN1Cc1ncoc1-c1cccs1)CCS(=O)(=O)N2c1cccc(F)c1 [Example 56, hydrochloride salt]
T = COC1=CS(=O)(=O)N(c2cccc(F)c2)[C@@]12CCN(Cc1ccc(O)c(-c3nscc3C)c1)[C@@H](C)C2 [Example 86, ammonium salt]
Prompt: Order the records so the highest pIC50 appears first and the lowest last. Write the labels, ordered according to the request.
Completion: Q, T, P, R, S
(Q: 7.20, T: 6.93, P: 6.47, R: 6.15, S: 4.81)

1 = Cc1scnc1-c1cc(CN2CC[C@@]3(C[C@@H]2C)C(=O)CS(=O)(=O)N3c2cccc(F)c2)ccc1O [Example 83]
2 = C[C@H]1C[C@]2(CCN1Cc1ncoc1C1CCCO1)CCS(=O)(=O)N2c1cccc(F)c1 (mixture of isomers) [Example 80]
3 = Cc1ccsc1-c1ncsc1CN1CC[C@]2(C=CS(=O)(=O)N2c2cccc(F)c2)C[C@@H]1C [Example 45]
4 = C[C@H]1C[C@]2(CCN1Cc1ncoc1-c1cncnc1)CCS(=O)(=O)N2c1cccc(F)c1 [Example 33, hydrochloride salt]
Prompt: Order the records so the highest pIC50 appears first and the lowest last. Write the labels, ordered according to the request.
Completion: 1, 4, 2, 3

----------
- assayed-target: BACE1 enzyme (soluble, truncated BACE enzyme, BACE1deltaTM96His) (Homo sapiens)
- Construct: soluble, truncated BACE enzyme (BACE1deltaTM96His); His; made in house
- assay-summary: BACE1 Fluorescent Polarization (FP) Assay
- Format: biochemical
- assay-setup: 11-point curve; geometric mean of 2-4 IC50 determinations unless footnoted (^2: 5-6 determinations; ^4: single determination); read-out: BACE activity, 11-point curve, IC50
Where a name gives a salt, the structure may show the parent alone.
measured-endpoint: IC50 (nM)

Worked set:
>>> df
                                   molecule  measured_endpoint  unit_string  recorded_value
0  Cc1cncc(-c2ocnc2CN2CC[C@]3(CCS(=O)(=O)N3c3cccc(F)c3)C[C@@H]2C)c1 [Example 57, hydrochloride salt]               IC50           nM            4080
1  CC(C)Oc1cccc(CN2CC[C@]3(CCS(=O)(=O)N3c3cccc(F)c3)C[C@@H]2C)c1               IC50           nM            2160

1 = C[C@H]1C[C@@]2(C=CS(=O)(=O)N2c2cccc(F)c2)CCN1Cc1ncoc1C1CCCOC1 (stereo partly shown)
2 = Cc1cccnc1-c1cccc(CN2CC[C@]3(C=CS(=O)(=O)N3c3cccc(F)c3)C[C@@H]2C)c1 [Example 77, trifluoroacetic acid salt]
Prompt: # returns the entry with the larger IC50; inputs 1 and 2 Refer to your chosen item by its label in the answer.
Completion: 2

----------
- assayed-target: BACE1 enzyme (soluble, truncated BACE enzyme, BACE1deltaTM96His) (Homo sapiens)
- Construct: soluble, truncated BACE enzyme (BACE1deltaTM96His); His; made in house
- assay-summary: BACE1 Fluorescent Polarization (FP) Assay
- Assay type: biochemical
- assay-setup: 8-point curve; geometric mean of 2-4 IC50 determinations unless footnoted (^2: 5-6 determinations; ^4: single determination); read-out: BACE activity, 8-point curve, IC50
Where a name gives a salt, the structure may show the parent alone.
measured-endpoint: IC50 (nM)

In [3]: df
Out[3]:
                                   compound                            assayed_target  unit_string  recorded_value
0  C[C@H]1C[C@@]2(C=CS(=O)(=O)N2c2cccc(F)c2)CCN1Cc1ccc(O)c(OC(F)(F)F)c1 [Example 10, hydrochloride salt]  BACE1 enzyme (soluble, truncated BACE enzyme, BACE1deltaTM96His) (Homo sapiens)           nM             181
1  C[C@H]1C[C@]2(CCN1Cc1ccc3[nH]ccc3c1)CCS(=O)(=O)N2c1cccc(F)c1 [Example 51]  BACE1 enzyme (soluble, truncated BACE enzyme, BACE1deltaTM96His) (Homo sapiens)           nM            2080
2  C[C@H]1C[C@@]2(C=CS(=O)(=O)N2c2cccc(F)c2)CCN1Cc1ncoc1C1CCOC1 (some centres unmarked) [Example 71]  BACE1 enzyme (soluble, truncated BACE enzyme, BACE1deltaTM96His) (Homo sapiens)           nM            1290
3  CC(C)Oc1cccc(CN2CC[C@]3(C=CS(=O)(=O)N3c3cccc(F)c3)C[C@@H]2C)c1 [Example 17]  BACE1 enzyme (soluble, truncated BACE enzyme, BACE1deltaTM96His) (Homo sapiens)           nM            84.9

I = Cc1ccncc1-c1cccc(CN2CC[C@]3(CCS(=O)(=O)N3c3cccc(F)c3)C[C@@H]2C)c1 [Example 55, hydrochloride salt]
II = Cc1ncccc1-c1ocnc1CN1CC[C@]2(C=CS(=O)(=O)N2c2cccc(F)c2)C[C@@H]1C [Example 76]
III = Cc1ccsc1-c1ncsc1CN1CC[C@]2(C=CS(=O)(=O)N2c2cccc(F)c2)C[C@@H]1C [Example 45]
Prompt: Order the records so the highest IC50 appears first and the lowest last. Write the labels, ordered according to the request.
Completion: III, II, I

----------
- assayed-target: BACE1 enzyme (soluble, truncated BACE enzyme, BACE1deltaTM96His) (Homo sapiens)
- Construct: soluble, truncated BACE enzyme (BACE1deltaTM96His); His; made in house
- assay-summary: BACE1 Fluorescent Polarization (FP) Assay
- Format: biochemical
- assay-setup: 11-point curve; geometric mean of 2-4 IC50 determinations unless footnoted (^2: 5-6 determinations; ^4: single determination); read-out: BACE activity, 11-point curve, IC50
Structures can show the parent of a compound that is named as a salt.
measured-endpoint: IC50 (nM)

Worked set:
                                   compound  recorded_value
0  COc1ccc2[nH]c(CN3CC[C@]4(C=CS(=O)(=O)N4c4cccc(F)c4)C[C@@H]3C)cc2c1            2220
1  Cc1csnc1-c1cc(CN2CC[C@]3(CCS(=O)(=O)N3c3cnccn3)C[C@@H]2C)ccc1O             457
2  Cc1scnc1-c1cc(CN2CC[C@]3(CCS(=O)(=O)N3c3cnccn3)C[C@@H]2C)ccc1O            1230
3  Cc1ccccc1-c1cc(CN2CC[C@]3(C=CS(=O)(=O)N3c3cccc(F)c3)C[C@@H]2C)ccc1O [Example 25, hydrochloride salt]            28.4
4  C[C@H]1C[C@]2(CCN1Cc1ccc(O)c(C3CCCO3)c1)CCS(=O)(=O)N2c1cccc(F)c1 (single isomer, unassigned) [Example 47]             249

I = Cc1csnc1-c1cc(CN2CC[C@]3(C=CS(=O)(=O)N3c3cccc(F)c3)C[C@@H]2C)ccc1O [Example 72, trifluoroacetic acid salt]
II = Cc1ncccc1-c1ocnc1CN1CC[C@]2(C=CS(=O)(=O)N2c2cccc(F)c2)C[C@@H]1C
Prompt: // returns I or II , whichever has the lower IC50 Refer to your chosen item by its label in the answer.
Completion: I

Origin of measurements: patent US20130150376A1
